Tested on: UO-31 renal
Test: NCI-60 one-dose screen, 48 h (100 = growth as untreated, 0 = no growth, -100 = all killed)
Settings: 10 µM unless noted
The panel holds about 83,000 compounds, 20% with a hit somewhere; the sample as a whole holds those more often.
Kindly supply the reported growth values for the records listed here.
Give bare numbers, in %.

Some solved cases for reference:
{"compound": "Cc1cc(CO)c(O)c(CO)c1", "targetUnderTest": "UO-31 renal", "unitName": "%", "growth": 90.9}
{"compound": "O=C(O)c1cc(I)ccc1O", "targetUnderTest": "UO-31 renal", "unitName": "%", "growth": 90.7}
{"compound": "OCC(O)COc1ccc(Cl)cc1Cl (centres undefined)", "targetUnderTest": "UO-31 renal", "unitName": "%", "growth": 89.4}

What value of growth on UO-31 renal does O=C(O)C1CSC(c2ccccc2)N1 (centres undefined) have?
91.6

Origin of measurements: PubChem BioAssay (NCI)
